TEST_PROTOCOL: BSK_SAg_SRB: Viability Assessment in the BioMAP Diversity Plus: SAg Assay (AID 2283096);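 note: cells read one day after compound addition; hits may be either gain or loss of signal compared with DMSO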
TEST_CONDITIONS: primary human HUVEC with PBMC
Calls of active or inactive are those of the source. Rule for the calls: active = hit-call score of the fitted dose curve at least 0.9, where 1 is the maximum; inactive = score below 0.9.
EXPERIMENTAL_READOUT: AC50

// known answers, use as guide
ClC1=C(Cl)[C@]2(Cl)[C@H]3[C@H]([C@@H]4C=C[C@H]3C4)[C@@]1(Cl)C2(Cl)Cl    25.8 µM (active)
CNC(=O)Oc1cccc2c1OC(C)(C)C2    inactive
C=CCc1ccc2c(c1)OCO2    inactive
COc1cc(C=O)cc2c1[C@H](COC(N)=O)[C@]1(OC(C)=O)ON2C[C@H]2[C@@H]1N2C(C)=O    4.34 µM (active)

Moving on to the next molecule.
(Q) Quick one: AC50 for CCN(CC)N=O ?
(A) inactive

---

Read-out: Pro-epidermal growth factor (Homo sapiens) (UniProt P01133)
TEST_PROTOCOL: LTEA_HepaRG_EGF: Life Technologies and Expression Analysis (LTEA) Assay for Epidermal growth factor (EGF) using HepaRG (AID 2283489)
TEST_CONDITIONS: mRNA level, 48 h; actives raise or lower the signal
Calls of active or inactive are those of the source. The calls were made as follows: active = hit-call score of the fitted dose curve at least 0.9, where 1 is the maximum; inactive = score below 0.9.
EXPERIMENTAL_READOUT: AC50

[Cl-].[Cl-].[Hg+2]    inactive
CC(C)(C)OOC(=O)c1ccccc1    inactive
O=C(N[C@H](c1ccccc1)[C@@H]1CN2CCC1CC2)c1c(Cl)ccc(C(F)(F)F)c1Cl    73.1 µM (active)
CCCCCCCCOC(=O)c1ccc(C(=O)OCCCCCCCC)c(C(=O)OCCCCCCCC)c1    inactive
CC(C)(C)OOC(C)(C)CCC(C)(C)OOC(C)(C)C    inactive

Moving on to the next compound.
(Q) Quick one: AC50 for CCCCCOC(=O)c1ccccc1C(=O)OCCCCC ?
(A) inactive

---

TEST_PROTOCOL: Tanguay_ZF_120hpf_AXIS_legacy: (Legacy) Oregon State University Tanguay Lab 120 Hour Post-fertilization zebrafish Assay for Body Axis Malformation (AID 2283635)
Results filed as inconclusive are left out. The source made the active and inactive calls. The calls were made as follows: active = hit-call score of the fitted dose curve at least 0.9, where 1 is the maximum; inconclusive = response in the unintended direction; inactive = score below 0.9.
Assign a class; possible classes are yes (active), no (inactive)

(Q) What is the recorded call for this molecule in the test? COC(=O)Nc1nc2ccccc2[nH]1
(A) no

(Q) What is the recorded call for this molecule in the test? CCC[CH2][Sn]([Cl])([CH2]CCC)[CH2]CCC
(A) no

(Q) What is the recorded call for this molecule in the test? ClC1=C(Cl)C2(Cl)C3C(Cl)C=CC3C1(Cl)C2(Cl)Cl (stereo not given)
(A) no

(Q) What is the recorded call for this molecule in the test? Nc1ccc([N+](=O)[O-])cc1
(A) no

(Q) What is the recorded call for this molecule in the test? Cc1ccc(N)c(N)c1
(A) no

(Q) What is the recorded call for this molecule in the test? O=C1CCCO1
(A) no

(Q) What is the recorded call for this molecule in the test? O=Cc1ccco1
(A) no

(Q) What is the recorded call for this molecule in the test? C1=Cc2cccc3cccc1c23
(A) no

(Q) What is the recorded call for this molecule in the test? CO[C@@H]1[C@H](OC(=O)NC(=O)CCl)CC[C@]2(CO2)[C@H]1[C@@]1(C)O[C@@H]1CC=C(C)C
(A) no

(Q) What is the recorded call for this molecule in the test? O=C(Oc1ccc(Br)cc1)N1CCN2CCC1CC2
(A) yes

(Q) What is the recorded call for this molecule in the test? Cc1ccc(N=C=O)cc1N=C=O
(A) no

(Q) What is the recorded call for this molecule in the test? OCCOCCO
(A) no

(Q) What is the recorded call for this molecule in the test? [O-][Cl+]O
(A) no

(Q) What is the recorded call for this molecule in the test? N#CC(Br)(Br)C(N)=O
(A) no

(Q) What is the recorded call for this molecule in the test? Cc1cccc(N)c1N
(A) yes

(Q) What is the recorded call for this molecule in the test? CC(C)COC(=O)c1ccccc1C(=O)OCC(C)C
(A) no

(Q) What is the recorded call for this molecule in the test? Brc1ccc(Oc2ccccc2)cc1
(A) no

(Q) What is the recorded call for this molecule in the test? CC(C)(C)C(O)(CCc1ccc(Cl)cc1)Cn1cncn1 (stereo not given)
(A) no

(Q) What is the recorded call for this molecule in the test? CC(C)N(Cc1ccccc1)C(=O)C(C)(C)C
(A) no

(Q) What is the recorded call for this molecule in the test? CC(C)(C)OOC(=O)c1ccccc1
(A) no

(Q) What is the recorded call for this molecule in the test? CN(C)c1ccc(C(=O)c2ccc(N(C)C)cc2)cc1
(A) yes

(Q) What is the recorded call for this molecule in the test? CCC12COCN1COC2
(A) no

(Q) What is the recorded call for this molecule in the test? CC(O)CCO (stereo not given)
(A) no

(Q) What is the recorded call for this molecule in the test? Clc1ccccc1Cl
(A) no

(Q) What is the recorded call for this molecule in the test? CN(C)C(=O)Nc1ccc(Cl)cc1
(A) no

(Q) What is the recorded call for this molecule in the test? COC(=O)c1ccccc1N
(A) no

(Q) What is the recorded call for this molecule in the test? CCNS(=O)(=O)C(F)(F)C(F)(F)C(F)(F)C(F)(F)C(F)(F)C(F)(F)C(F)(F)C(F)(F)F
(A) yes

(Q) What is the recorded call for this molecule in the test? CC(C)(O)c1cnn2c(-c3ccc(F)c(-c4c(F)cccc4C#N)c3)cnc2n1
(A) no

(Q) What is the recorded call for this molecule in the test? CCCCCCCCCCCCCN1CC(C)OC(C)C1 (stereo not given)
(A) no

(Q) What is the recorded call for this molecule in the test? Nc1ccc(N=Nc2ccccc2)cc1
(A) no

---

Read-out: Monokine induced gamma interferon (MIG), CXCL9 (gene 4283)
TEST_PROTOCOL: BSK_BE3C_MIG: BioMAP Diversity Plus: BE3C Assay for Monokine induced gamma interferon (MIG) Biomarker Activity (AID 2283035)
TEST_CONDITIONS: primary human bronchial epithelial cells; actives raise or lower the signal
Activity calls are given as the source filed them. The calls were made as follows: active = hit-call score of the fitted dose curve at least 0.9, where 1 is the maximum; inactive = score below 0.9.
Assign a class; possible classes are T = active, F = inactive

(Q) What is the recorded call for this compound in the test? c1ccc2c(c1)-c1cccc3cccc-2c13
(A) F

(Q) What is the recorded call for this compound in the test? CS(=O)(=O)NC(=O)c1cc(Oc2ccc(C(F)(F)F)cc2Cl)ccc1[N+](=O)[O-]
(A) F

(Q) What is the recorded call for this compound in the test? CCC12COCN1COC2
(A) F

(Q) What is the recorded call for this compound in the test? CCCCOC(=O)c1ccccc1C(=O)OCc1ccccc1
(A) F

(Q) What is the recorded call for this compound in the test? O=C(N[C@H](c1ccccc1)[C@@H]1CN2CCC1CC2)c1c(Cl)ccc(C(F)(F)F)c1Cl
(A) T

(Q) What is the recorded call for this compound in the test? Clc1ccc(C(c2ccc(Cl)cc2)C(Cl)(Cl)Cl)cc1
(A) F

(Q) What is the recorded call for this compound in the test? Cn1cc(-c2ccccc2)c(=O)c(-c2cccc(C(F)(F)F)c2)c1
(A) F

(Q) What is the recorded call for this compound in the test? CC(C)(OOC(C)(C)c1ccccc1)c1ccccc1
(A) F

(Q) What is the recorded call for this compound in the test? CN(C)C(=O)Nc1ccc(Cl)cc1
(A) F

(Q) What is the recorded call for this compound in the test? C=CCc1ccc2c(c1)OCO2
(A) F

(Q) What is the recorded call for this compound in the test? O=P(OCCCl)(OCCCl)OCCCl
(A) F

(Q) What is the recorded call for this compound in the test? CCCCCOC(=O)c1ccccc1C(=O)OCCCCC
(A) F

(Q) What is the recorded call for this compound in the test? Oc1ccccc1Cl
(A) F

---

TARGET_OR_TEST_SYSTEM: mouse Peroxisome Proliferator-activated Receptor gamma (PPARg), Pparg (gene 19016) (UniProt P37238)
Sequence (P37238 whole entry, looked up): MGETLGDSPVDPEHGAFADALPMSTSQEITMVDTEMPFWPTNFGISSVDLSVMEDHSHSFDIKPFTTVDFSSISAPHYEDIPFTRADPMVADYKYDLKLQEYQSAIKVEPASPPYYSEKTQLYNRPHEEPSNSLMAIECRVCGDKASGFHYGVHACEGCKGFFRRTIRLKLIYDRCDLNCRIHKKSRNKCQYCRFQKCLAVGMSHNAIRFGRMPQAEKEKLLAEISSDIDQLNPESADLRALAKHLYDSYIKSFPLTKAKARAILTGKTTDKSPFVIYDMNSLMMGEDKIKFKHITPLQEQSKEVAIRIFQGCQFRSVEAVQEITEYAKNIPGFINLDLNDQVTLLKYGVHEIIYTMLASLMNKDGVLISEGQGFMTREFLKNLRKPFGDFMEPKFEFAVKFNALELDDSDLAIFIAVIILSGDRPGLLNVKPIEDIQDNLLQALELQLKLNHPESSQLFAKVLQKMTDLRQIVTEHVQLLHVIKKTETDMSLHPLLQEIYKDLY
TEST_PROTOCOL: ATG_mPPARg_XSP2: Attagene TRANS-FACTORIAL Multi-Species (XSP2) HepG2 Assay for mouse Peroxisome Proliferator-activated Receptor gamma (PPARg) (AID 2283830);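 note: hits are gains in reporter mRNA above DMSO so AC50 marks activation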
Records with an inconclusive call do not appear. Calls of active or inactive are those of the source. Rule for the calls: active = hit-call score of the fitted dose curve at least 0.9, where 1 is the maximum; inconclusive = response in the unintended direction; inactive = score below 0.9.
Assign a class; possible classes are Y for active, N for inactive

(Q) What is the recorded call for this compound in the test? c1ccc2c(c1)-c1cccc3cccc-2c13
(A) N

(Q) What is the recorded call for this compound in the test? CCCCC(CC)COC(=O)c1ccc(C(=O)OCC(CC)CCCC)c(C(=O)OCC(CC)CCCC)c1 (stereo not given)
(A) N

(Q) What is the recorded call for this compound in the test? C[C@]12C=CC3=C4CCC(=O)C=C4CC[C@H]3[C@@H]1CC[C@@H]2O
(A) N

(Q) What is the recorded call for this compound in the test? Clc1ccc(C(c2ccc(Cl)cc2)C(Cl)(Cl)Cl)cc1
(A) Y

(Q) What is the recorded call for this compound in the test? CCCCCOC(=O)c1ccccc1C(=O)OCCCCC
(A) Y
